TARGET_SYSTEM: WDR5 (Homo sapiens)
Construct: endogenous in cells
TEST_NAME: Competition binding assay in cell lysate, affinity matrix, MS
pIC50: −log10 of the molar value.

{"SMILES_TEXT": "Nc1ccccc1NC(=O)c1ccc(CNC(=O)OCc2cccnc2)cc1", "pIC50": "≤ 3.52"}

====

TARGET_SYSTEM: WDR5 (Homo sapiens)
Construct: endogenous in cells
TEST_NAME: Competition binding assay in cell lysate, affinity matrix, MS
CONDITION_PARAMETERS: WDR5; K-562 cell lysate
pIC50: −log10 of the molar value.

{"MOLECULE": "CC(/C=C/C(=O)NO)=C\\[C@@H](C)C(=O)c1ccc(N(C)C)cc1 [Trichostatin A]", "pIC50": 6.38}
